Sourced from patent US12590066B2

For each entry below, report its CYP3A4 coenzyme activity (%) with respect to control group not treated value.
experimentalSystem: CYP3A4 (Homo sapiens)
Construct: human liver microsomes (0.25 mg/mL); from tissue; host or cells: human liver microsomes
Sequence (P08684 whole entry): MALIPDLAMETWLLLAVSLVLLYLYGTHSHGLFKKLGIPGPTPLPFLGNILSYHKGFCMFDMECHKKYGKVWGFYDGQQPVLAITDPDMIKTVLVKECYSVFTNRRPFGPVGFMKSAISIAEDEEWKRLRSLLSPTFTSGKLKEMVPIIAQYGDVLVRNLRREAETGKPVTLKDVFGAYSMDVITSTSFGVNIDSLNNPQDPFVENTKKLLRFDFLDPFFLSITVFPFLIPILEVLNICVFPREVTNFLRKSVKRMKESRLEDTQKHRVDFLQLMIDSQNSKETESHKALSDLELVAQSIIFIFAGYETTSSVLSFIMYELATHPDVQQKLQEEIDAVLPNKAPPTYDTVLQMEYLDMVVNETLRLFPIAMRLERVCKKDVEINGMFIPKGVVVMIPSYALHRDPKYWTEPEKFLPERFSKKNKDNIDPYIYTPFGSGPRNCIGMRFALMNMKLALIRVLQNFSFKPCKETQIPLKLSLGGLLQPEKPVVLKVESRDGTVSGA
experimentDescription: Inhibitory effect on CYP coenzyme activity, human liver microsomes
Type: in vitro ADME
testParameters: 10 μM compound, human liver microsomes 0.25 mg/mL, substrate midazolam, 15 minutes

I have this compound here, Cn1ccc2ccc(NN=C(C#N)C#N)cc2c1=O , and I need its recorded CYP3A4 coenzyme activity (%) with respect to control group not treated. 89%

Returns the measured CYP3A4 coenzyme activity (%) with respect to control group not treated for the input compound. Input: Cn1ccc2c(NN=C(C#N)C#N)cccc2c1=O 88.6%

State the recorded CYP3A4 coenzyme activity (%) with respect to control group not treated for this entry: N#CC(C#N)=NNc1ccc2c(c1)oc(=O)n2C(F)F 90.4%

Value lookup for CYP3A4 coenzyme activity (%) with respect to control group not treated; key = Cn1c(=O)sc2cc(NN=C(C#N)C#N)ccc21 91.2%

* * *

Field: CYP2C9 coenzyme activity (%) with respect to control group not treated. Provide a value for each of the compounds that follow.
experimentalSystem: CYP2C9 (Homo sapiens, UniProt P11712)
Construct: human liver microsomes (0.25 mg/mL); from tissue; host or cells: human liver microsomes
Sequence (P11712 whole entry): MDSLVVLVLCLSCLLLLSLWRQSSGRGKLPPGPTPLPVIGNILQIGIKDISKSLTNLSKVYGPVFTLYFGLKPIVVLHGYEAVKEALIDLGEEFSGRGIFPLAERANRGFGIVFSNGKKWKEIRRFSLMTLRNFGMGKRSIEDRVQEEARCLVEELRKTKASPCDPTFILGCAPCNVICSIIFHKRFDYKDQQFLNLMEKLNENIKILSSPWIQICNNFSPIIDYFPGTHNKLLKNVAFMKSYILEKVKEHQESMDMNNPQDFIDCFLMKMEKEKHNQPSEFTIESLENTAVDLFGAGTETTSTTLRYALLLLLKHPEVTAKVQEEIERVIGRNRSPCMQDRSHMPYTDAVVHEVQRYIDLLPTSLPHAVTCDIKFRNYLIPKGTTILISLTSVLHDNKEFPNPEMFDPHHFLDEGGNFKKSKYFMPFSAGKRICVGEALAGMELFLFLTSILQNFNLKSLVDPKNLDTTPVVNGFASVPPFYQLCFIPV
experimentDescription: Inhibitory effect on CYP coenzyme activity, human liver microsomes
Assay type: in vitro ADME
testParameters: 10 μM compound, human liver microsomes 0.25 mg/mL, substrate diclofenac, 15 minutes

Return reported CYP2C9 coenzyme activity (%) with respect to control group not treated; argument: CC(C)n1c(=O)n(C2CC2)c2ccc(NN=C(C#N)C#N)cc21 [Compound 42] 59.6%

Recorded CYP2C9 coenzyme activity (%) with respect to control group not treated for N#CC(C#N)=NNc1ccc2[nH]c(=O)oc2c1 [Compound 15] , please? 59.4%

Query: CYP2C9 coenzyme activity (%) with respect to control group not treated; subject: N#CC(C#N)=NNc1ccc2c(c1)sc(=O)n2C(F)F [Compound 19] 23.3%

Which CYP2C9 coenzyme activity (%) with respect to control group not treated is listed for Cn1c(=O)oc2cc(NN=C(C#N)C#N)ccc21 [Compound 16] ? 54.9%

Look at this compound and give its reported CYP2C9 coenzyme activity (%) with respect to control group not treated. N#CC(C#N)=NNc1ccc2[nH]c(=O)sc2c1 [Compound 13] 23.3%

Return reported CYP2C9 coenzyme activity (%) with respect to control group not treated; argument: CC(C)n1c(=O)oc2cc(NN=C(C#N)C#N)ccc21 [Compound 20] 32.3%

Return reported CYP2C9 coenzyme activity (%) with respect to control group not treated; argument: CC(C)n1c(=O)n(C)c2ccc(NN=C(C#N)C#N)cc21 [Compound 36] 36.6%

If you can, please state the reported CYP2C9 coenzyme activity (%) with respect to control group not treated value of Cn1c(=O)n(C)c2ncc(NN=C(C#N)C#N)cc21 [Compound 12] . 93.4%

Data request, read-out CYP2C9 coenzyme activity (%) with respect to control group not treated, for COc1cc(NN=C(C#N)C#N)cc2c1n(C)c(=O)n2C [Compound 33] 69.9%

Any idea what its CYP2C9 coenzyme activity (%) with respect to control group not treated is? The compound is Cn1c(=O)sc2cc(NN=C(C#N)C#N)ccc21 [Compound 14] 19.5%

Could you share which CYP2C9 coenzyme activity (%) with respect to control group not treated value was measured for Cn1c(=O)n(C)c2c(Cl)cc(NN=C(C#N)C#N)cc21 [Compound 11] ? 45.8%

Give the measured CYP2C9 coenzyme activity (%) with respect to control group not treated of N#CC(C#N)=NNc1cccc2c(=O)[nH]ccc12 [Compound 4] . 59.3%

Look up CYP2C9 coenzyme activity (%) with respect to control group not treated: CC(C)n1c(=O)oc2ccc(NN=C(C#N)C#N)cc21 [Compound 29] 4.7%

// returns reported CYP2C9 coenzyme activity (%) with respect to control group not treated for input Cc1cc(=O)n(C)c2ccc(NN=C(C#N)C#N)cc12 [Compound 27] 33.6%

Fill in the blank: the reported CYP2C9 coenzyme activity (%) with respect to control group not treated of CC(C)n1c(=O)n(C(F)F)c2cc(NN=C(C#N)C#N)ccc21 [Compound 43] is ____. 14.1%

Return reported CYP2C9 coenzyme activity (%) with respect to control group not treated; argument: CC(C)n1ccc2c(NN=C(C#N)C#N)cccc2c1=O [Compound 6] 8.7%

* * *

experimentalSystem: CYP2C19 (Homo sapiens, UniProt P33261)
Construct: human liver microsomes (0.25 mg/mL); from tissue; host or cells: human liver microsomes
Sequence (P33261 whole entry): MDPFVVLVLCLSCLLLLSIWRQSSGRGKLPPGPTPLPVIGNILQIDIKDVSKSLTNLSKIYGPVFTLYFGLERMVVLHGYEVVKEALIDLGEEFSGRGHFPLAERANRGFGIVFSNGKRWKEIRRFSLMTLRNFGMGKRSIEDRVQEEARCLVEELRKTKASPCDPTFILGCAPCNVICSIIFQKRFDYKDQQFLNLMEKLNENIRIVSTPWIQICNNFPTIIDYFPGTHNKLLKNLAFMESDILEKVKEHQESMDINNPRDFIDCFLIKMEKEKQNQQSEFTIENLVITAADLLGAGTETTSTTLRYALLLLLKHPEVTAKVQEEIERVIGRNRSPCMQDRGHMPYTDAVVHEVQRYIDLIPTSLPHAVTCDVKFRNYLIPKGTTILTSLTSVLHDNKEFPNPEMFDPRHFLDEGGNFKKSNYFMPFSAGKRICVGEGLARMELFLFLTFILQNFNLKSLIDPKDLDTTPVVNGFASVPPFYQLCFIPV
experimentDescription: Inhibitory effect on CYP coenzyme activity, human liver microsomes
Format: in vitro ADME
testParameters: 10 μM compound, human liver microsomes 0.25 mg/mL, substrate S-mephenytoin, 15 minutes
measurementName: CYP2C19 coenzyme activity (%) with respect to control group not treated

Name the recorded CYP2C19 coenzyme activity (%) with respect to control group not treated for Cn1ccc2c(NN=C(C#N)C#N)cccc2c1=O . >100%

Which CYP2C19 coenzyme activity (%) with respect to control group not treated is reported for this compound? CC(C)n1c(=O)n(C2CC2)c2ccc(NN=C(C#N)C#N)cc21 >100%

What does the data say about its CYP2C19 coenzyme activity (%) with respect to control group not treated? Entry: CCn1c(=O)n(C)c2cc(NN=C(C#N)C#N)cnc21 >100%

* * *

Tested on: Tau-BiFC cells
experimentDescription: Cell viability (stained nuclei count) in Tau-BiFC cells
Format: cell-based
testParameters: 10 μM compound, 48 hours; Forskolin-only group = 100% cell viability
measurementName: Cell viability (% @10 μM) (%)
Numeric answer only, unit % assumed.

Given the entry Cn1c(=O)[nH]c2cc(NN=C(C#N)C#N)ccc21 , report its measured Cell viability (% @10 μM). 94.38

Fill blank: measured Cell viability (% @10 μM) of the compound Cn1ccc2ccc(NN=C(C#N)C#N)cc2c1=O is ____. 57.5

Any idea what Cell viability (% @10 μM) was measured for CC(C)n1c(=O)n(C)c2ccc(NN=C(C#N)C#N)cc21 ? 104

Entry under review: CCn1c(=O)n(C)c2ccc(NN=C(C#N)C#N)cc21 . Reported Cell viability (% @10 μM)? 130

* * *

experimentalSystem: CYP1A2 (Homo sapiens, UniProt P05177)
Construct: human liver microsomes (0.25 mg/mL); from tissue; host or cells: human liver microsomes
Sequence (P05177 whole entry): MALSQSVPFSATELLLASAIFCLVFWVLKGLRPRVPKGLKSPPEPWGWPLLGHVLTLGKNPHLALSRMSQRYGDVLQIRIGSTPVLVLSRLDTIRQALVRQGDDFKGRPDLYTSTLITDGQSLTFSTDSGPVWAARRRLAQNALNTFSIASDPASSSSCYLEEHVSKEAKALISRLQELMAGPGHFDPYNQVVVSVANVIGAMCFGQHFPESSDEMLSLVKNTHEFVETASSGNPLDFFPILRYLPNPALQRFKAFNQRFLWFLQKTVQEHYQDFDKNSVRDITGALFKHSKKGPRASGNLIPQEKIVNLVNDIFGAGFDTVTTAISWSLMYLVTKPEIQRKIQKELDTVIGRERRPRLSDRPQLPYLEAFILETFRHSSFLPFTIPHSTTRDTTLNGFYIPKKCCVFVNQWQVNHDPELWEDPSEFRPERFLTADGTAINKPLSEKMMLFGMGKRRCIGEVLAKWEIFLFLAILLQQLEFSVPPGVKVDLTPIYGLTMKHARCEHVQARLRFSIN
experimentDescription: Inhibitory effect on CYP coenzyme activity, human liver microsomes
Type: in vitro ADME
testParameters: 10 μM compound, human liver microsomes 0.25 mg/mL, substrate phenacetin, 15 minutes
So I've got a bunch of compounds here, and I need their CYP1A2 coenzyme activity (%) with respect to control group not treated values.
Express it in %; write the number only.

What measured CYP1A2 coenzyme activity (%) with respect to control group not treated goes with N#CC(C#N)=NNc1ccc2[nH]c(=O)sc2c1 ? 79

# get_value(readout='CYP1A2 coenzyme activity (%) with respect to control group not treated', item= N#CC(C#N)=NNc1ccc2c(c1)oc(=O)n2C(F)F ) 79.6

What value of CYP1A2 coenzyme activity (%) with respect to control group not treated has been reported for the following compound? Cn1c(=O)oc2cc(NN=C(C#N)C#N)ccc21 91.5

For the compound shown here, Cn1c(=O)sc2cc(NN=C(C#N)C#N)ccc21 , give the reported CYP1A2 coenzyme activity (%) with respect to control group not treated. 81.6

* * *

Give measured Mouse (%) amount of substrate remaining after the reaction for each item. Keep answers brief.
experimentDescription: Liver microsome stability
Type: in vitro ADME
testParameters: mouse liver microsomes 0.25 mg/mL, 1 μM compound, 37° C., 30 minutes, NADPH
Response body: numeric value in %, unit text excluded.

Recorded Mouse (%) amount of substrate remaining after the reaction for CC(C)n1c(=O)sc2cc(NN=C(C#N)C#N)ccc21 [Compound 18] , please? 71.3

Fill in the blank: the reported Mouse (%) amount of substrate remaining after the reaction of N#CC(C#N)=NNc1ccc2c(c1)oc(=O)n2C(F)F [Compound 21] is ____. 71.8

Which Mouse (%) amount of substrate remaining after the reaction reading was recorded for the molecule CC(C)n1c(=O)n(C)c2ccc(NN=C(C#N)C#N)cc21 [Compound 36] ? 89.4

Suppose we examine the molecule CC(C)n1c(=O)oc2ccc(NN=C(C#N)C#N)cc21 [Compound 29] ; what Mouse (%) amount of substrate remaining after the reaction value has been reported? 88.9
